Each entry below carries its recorded normalised response.
- Tested on: CAL-120
- experiment.summary: normalised response (% of control), CellTiter-Glo; higher = more viable cells (100 = DMSO, 0 = benzethonium chloride kill control)
- measurement.setup: incubation time: 72 h
quantity: normalised response (%)

[[record]]
compound = "Cc1ccc(C(=O)Nc2ccc(CN3CCN(C)CC3)c(C(F)(F)F)c2)cc1C#Cc1cnc2cccnn12 [Ponatinib] (1000 nM)"
quantity = "normalised response"
value = 41.2

[[record]]
compound = "CO[C@H]1/C=C\\C=C(/C)C(=O)NC2=CC(=O)C(NCCN(C)C)=C(C[C@@H](C)C[C@H](OC)[C@H](O)[C@@H](C)/C=C(\\C)[C@@H]1OC(N)=O)C2=O [Alvespimycin] (1000 nM)"
quantity = "normalised response"
value = 47.8

[[record]]
compound = "N.N.[Cl][Pt][Cl] [Cisplatin] (1000 nM)"
quantity = "normalised response"
value = 105

[[record]]
compound = "COc1cc([C@@H]2c3cc4c(cc3[C@@H](O[C@@H]3O[C@@H]5CO[C@@H](C)O[C@H]5[C@H](O)[C@H]3O)[C@H]3COC(=O)[C@H]23)OCO4)cc(OC)c1O [Etoposide] (10000 nM)"
quantity = "normalised response"
value = 73.7

[[record]]
compound = "C=C(c1ccc(C(=O)O)cc1)c1cc2c(cc1C)C(C)(C)CCC2(C)C [Bexarotene] (10000 nM)"
quantity = "normalised response"
value = 112

[[record]]
compound = "O=C(O)c1ccc(-c2c[nH]c3ncc(-c4ccccc4)cc23)cc1C1CCCC1 (10000 nM)"
quantity = "normalised response"
value = 94.5

[[record]]
compound = "C#Cc1cccc(Nc2ncnc3cc(OCCOC)c(OCCOC)cc23)c1 [Erlotinib] (10000 nM)"
quantity = "normalised response"
value = 79.8

[[record]]
compound = "CCC(C)(C)C(=O)O[C@H]1C[C@@H](C)C=C2C=C[C@H](C)[C@H](CC[C@@H]3C[C@@H](O)CC(=O)O3)[C@H]21 [Simvastatin] (10000 nM)"
quantity = "normalised response"
value = 91.8

[[record]]
compound = "N#CCNC(=O)c1ccc(-c2ccnc(Nc3ccc(N4CCOCC4)cc3)n2)cc1 [Momelotinib] (10000 nM)"
quantity = "normalised response"
value = 50.2

[[record]]
compound = "CN(N=O)C(=O)N[C@@H](C=O)[C@@H](O)[C@H](O)[C@H](O)CO [Streptozocin] (10000 nM)"
quantity = "normalised response"
value = 109

[[record]]
compound = "Cn1c(CCCC(=O)O)nc2cc(N(CCCl)CCCl)ccc21 [Bendamustine] (10000 nM)"
quantity = "normalised response"
value = 108

[[record]]
compound = "CCC1(c2ccc(N)cc2)CCC(=O)NC1=O (centres undefined) [Aminoglutethimide] (10000 nM)"
quantity = "normalised response"
value = 109

[[record]]
compound = "NC(=O)Nc1cc(-c2cccc(F)c2)sc1C(=O)N[C@H]1CCCNC1 [AZD7762] (1000 nM)"
quantity = "normalised response"
value = 55.7

[[record]]
compound = "Clc1ccc(Nc2nnc(Cc3ccncc3)c3ccccc23)cc1 [Vatalanib] (10000 nM)"
quantity = "normalised response"
value = 104


====

- Test system: CAL-120
- experiment.summary: normalised response (% of control), CellTox Green; higher = less cell death (100 = DMSO, 0 = benzethonium chloride kill control)
- measurement.setup: incubation time: 72 h
We begin with a simple list: items and their reported normalised response.
quantity: normalised response

[[record]]
molecule = "N[C@@H](CSC(c1ccccc1)(c1ccccc1)c1ccccc1)C(=O)O [S-trityl-L-cysteine] (40000 nM)"
experimental_system = "CAL-120"
value = "105%"

[[record]]
molecule = "CCC1=C[C@@H]2CN(C1)Cc1c([nH]c3ccccc13)[C@@](C(=O)OC)(c1cc3c(cc1OC)N(C)[C@H]1[C@@](O)(C(=O)OC)[C@H](OC(C)=O)[C@]4(CC)C=CCN5CC[C@]31[C@@H]54)C2 [Vinorelbine] (1000 nM)"
experimental_system = "CAL-120"
value = "91.7%"

[[record]]
molecule = "C=C(c1ccc(C(=O)O)cc1)c1cc2c(cc1C)C(C)(C)CCC2(C)C [Bexarotene] (1000 nM)"
experimental_system = "CAL-120"
value = "99.6%"

[[record]]
molecule = "Cc1ccc(C(=O)N(CCCN)[C@@H](c2oc3cc(Cl)ccc3c(=O)c2Cc2ccccc2)C(C)C)cc1 (10 nM)"
experimental_system = "CAL-120"
value = "95.5%"

[[record]]
molecule = "Clc1ccc(Nc2nnc(Cc3ccncc3)c3ccccc23)cc1 [Vatalanib] (100 nM)"
experimental_system = "CAL-120"
value = "102%"

[[record]]
molecule = "CO[C@H]1/C=C\\C=C(/C)C(=O)NC2=CC(=O)C(NCCN(C)C)=C(C[C@@H](C)C[C@H](OC)[C@H](O)[C@@H](C)/C=C(\\C)[C@@H]1OC(N)=O)C2=O [Alvespimycin] (100 nM)"
experimental_system = "CAL-120"
value = "95%"

[[record]]
molecule = "Cn1c(CCCC(=O)O)nc2cc(N(CCCl)CCCl)ccc21 [Bendamustine] (100 nM)"
experimental_system = "CAL-120"
value = "97.4%"

[[record]]
molecule = "NC(=O)Nc1cc(-c2cccc(F)c2)sc1C(=O)N[C@H]1CCCNC1 [AZD7762] (100 nM)"
experimental_system = "CAL-120"
value = "99.8%"

[[record]]
molecule = "C[C@]12CC[C@@H]3c4ccc(O)cc4C[C@@H](CCCCCCCCC[S+]([O-])CCCC(F)(F)C(F)(F)F)[C@H]3[C@@H]1CC[C@@H]2O (stereo partly specified) [Fulvestrant] (10 nM)"
experimental_system = "CAL-120"
value = "101%"

[[record]]
molecule = "O=P1(NCCCl)OCCCN1CCCl (stereo unspecified) [Ifosfamide] (10000 nM)"
experimental_system = "CAL-120"
value = "100%"

[[record]]
molecule = "N.N.[Cl][Pt][Cl] [Cisplatin] (100 nM)"
experimental_system = "CAL-120"
value = "109%"

[[record]]
molecule = "O=C(CCCCCCC(=O)Nc1ccc([C@H]2O[C@@H](CSc3nc(-c4ccccc4)c(-c4ccccc4)o3)C[C@@H](c3ccc(CO)cc3)O2)cc1)NO [Tubacin] (10000 nM)"
experimental_system = "CAL-120"
value = "75.1%"

[[record]]
molecule = "N#CCNC(=O)c1ccc(-c2ccnc(Nc3ccc(N4CCOCC4)cc3)n2)cc1 [Momelotinib] (1000 nM)"
experimental_system = "CAL-120"
value = "102%"

[[record]]
molecule = "N#CCNC(=O)c1ccc(-c2ccnc(Nc3ccc(N4CCOCC4)cc3)n2)cc1 [Momelotinib] (10000 nM)"
experimental_system = "CAL-120"
value = "97.4%"

[[record]]
molecule = "CN[C@@H]1C[C@H]2O[C@@](C)([C@@H]1OC)n1c3ccccc3c3c4c(c5c6ccccc6n2c5c31)C(=O)N[C@H]4O [UCN-01] (1000 nM)"
experimental_system = "CAL-120"
value = "59.7%"

[[record]]
molecule = "Cc1ccc(C(=O)Nc2ccc(CN3CCN(C)CC3)c(C(F)(F)F)c2)cc1C#Cc1cnc2cccnn12 [Ponatinib] (1000 nM)"
experimental_system = "CAL-120"
value = "59.5%"


====

- System: MDA-MB-468
- experiment.summary: normalised viability (% of control), CellTiter-Blue; higher = more viable cells (about 100 = DMSO control)
- measurement.setup: 10 nM; incubation time: 72 h
quantity: normalised viability (%)

[[record]]
molecule = "CN(C)/N=N/c1[nH]cnc1C(N)=O [Dacarbazine]"
value = 104

[[record]]
molecule = "C[C@@H](Oc1cc(-c2cnn(C3CCNCC3)c2)cnc1N)c1c(Cl)ccc(F)c1Cl [Crizotinib]"
value = 107

[[record]]
molecule = "CCC1(c2ccc(N)cc2)CCC(=O)NC1=O (centres undefined) [Aminoglutethimide]"
value = 97.3

[[record]]
molecule = "COc1cc([C@@H]2c3cc4c(cc3[C@@H](O[C@@H]3O[C@@H]5CO[C@@H](C)O[C@H]5[C@H](O)[C@H]3O)[C@H]3COC(=O)[C@H]23)OCO4)cc(OC)c1O [Etoposide]"
value = 107


====

- Tested on: CAL-51
- experiment.summary: normalised viability (% of control), CellTiter-Blue; higher = more viable cells (about 100 = DMSO control)
- measurement.setup: 100 nM; incubation time: 72 h
Listed below: normalised viability values for each entry.
quantity: normalised viability (%)

[[record]]
molecule = "O=P1(NCCCl)OCCCN1CCCl (stereo not given) [Ifosfamide]"
unit_descriptor = "%"
value = 107

[[record]]
molecule = "O=C1CCC(N2C(=O)c3ccccc3C2=O)C(=O)N1 (stereo not given) [Thalidomide]"
unit_descriptor = "%"
value = 91.3

[[record]]
molecule = "CNCc1ccc(-c2[nH]c3cc(F)cc4c3c2CCNC4=O)cc1"
unit_descriptor = "%"
value = 110

[[record]]
molecule = "C[C@@H](Oc1cc(-c2cnn(C3CCNCC3)c2)cnc1N)c1c(Cl)ccc(F)c1Cl"
unit_descriptor = "%"
value = 108

[[record]]
molecule = "Oc1nc(-c2ccc(C(F)(F)F)cc2)nc2c1CSCC2"
unit_descriptor = "%"
value = 101

